B1: TRAF3IP2 (parent)
chain: YGHDYPRAAYQQVIQPALPGQPLP

variants of: B1; assay: protein stability index of a GFP-peptide fusion (GPS, HEK-293T) (PSI 1-6); higher = more stable; conditions: c terminus: a fixed tail appended;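 further: lentivirally expressed fusions sorted by FACS into six bins by GFP to DsRed ratio, PSI derived from sequencing read proportions per bin multiplied by bin number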

query-sequence: YGHDYPRAAYQQIIQPALPGQPLP [V13I]
protein stability index: 1.98
//
query-sequence: YGHDYPRAAYQQVIQPALPGQTLP [P22T]
protein stability index: 2.33
//
query-sequence: YGHDYPRAAYQQVIQKALPGQPLP [P16K]
protein stability index: 2.48
//
query-sequence: YGHMYPRAAYQQVIQPALPGQPLP [D4M]
protein stability index: 1.66
//
query-sequence: YGHDYTRAAYQQVIQPALPGQPLP [P6T]
protein stability index: 2.73
//
query-sequence: YGHDYPRGAYQQVIQPALPGQPLP [A8G]
protein stability index: 2.18
//
query-sequence: YGHDYPRAAYQQVIQPALPGQPLL [P24L]
protein stability index: 2.84
//
query-sequence: YGKDYPRAAYQQVIQPALPGQPLP [H3K]
protein stability index: 2.5
//
query-sequence: YGHDYPRAAAQQVIQPALPGQPLP [Y10A]
protein stability index: 1.79
//
query-sequence: YGHDYPRAAYQQVIQPALPGQPIP [L23I]
protein stability index: 2.24
//
query-sequence: YGHDYPFAAYQQVIQPALPGQPLP [R7F]
protein stability index: 2.2
//
query-sequence: YGHDYPRAAYDQVIQPALPGQPLP [Q11D]
protein stability index: 2.05
//
query-sequence: YRHDYPRAAYQQVIQPALPGQPLP [G2R]
protein stability index: 3.52
//
query-sequence: YGHDYPRAAYQQVIQPALPGQPLK [P24K]
protein stability index: 2.47
